Molecular target: Protein Rev (Human immunodeficiency virus type 1 group M subtype B (isolate WMJ22))
Experiment: HIV-1 Rev-RRE binding inhibitors, retest, confirmation, biochemical, FRET, acceptor and relative FRET calls (AID 837);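 note: relative FRET combines rise in Cy5 acceptor with fall in fluorescein donor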
Conditions: Fl-Rev peptide / Cy5-RRE RNA FRET, 1536-well; at 8 µM
Active and inactive are the calls of the source.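 Rule for the calls: active = relative FRET score above 0.01, or acceptor fluorescence over 30% below the sample-well median; inactive = the rest.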
Assign a class; possible classes are T (active), F (inactive)

Example cases with answers are listed next.
Cc1ccc(S(=O)(=O)c2c(COC(=O)c3ccc(Cl)cc3)c(-c3ccccc3)nn2C)cc1 = F
COc1ccc(/C=C/c2cc(-c3ccc(C)cc3)o[n+]2C)cc1 = T

Q: What was the test verdict on CC1CC(C)CN(Cc2nc(N)nc(Nc3ccccc3)n2)C1 (stereo unspecified) ?
Result: F

Q: What was the test verdict on C[n+]1c2n(c3ccccc31)N=C(c1ccc(Br)cc1)CS2 ?
Result: F
